assay.info: Water solubility
Format: physicochemical
run.parameters: water
quantity: solubility (mg/mL)

- compound: "NC[C@H]1O[C@@H](O[C@@H]([C@H](NCCCC(=O)NCc2ccc(N3CCC(Oc4ccc(OC(F)(F)F)cc4)CC3)cc2)C(N)=O)[C@H]2O[C@@H](n3ccc(=O)[nH]c3=O)C(O)C2O)[C@H](O)[C@@H]1O (stereo partly shown)"
  numeric.readout: 22

---

System: C. difficile ATCC 43596
assay.info: microbe, parasite or virus in culture
Type: cell-based, Clostridium difficile
run.parameters: Clostridioides difficile, ATCC43596, read-out: C. difficile ATCC 43596 MIC
Quick list: MIC per entry.
quantity: MIC (µg/mL)

- compound: "CN(CCCC(=O)NCc1ccc(N2CCC(Oc3ccc(OC(F)(F)F)cc3)CC2)cc1)[C@H](C(N)=O)[C@H](O[C@@H]1O[C@H](CN)[C@@H](O)[C@H]1O)[C@H]1O[C@@H](n2ccc(=O)[nH]c2=O)C(O)C1O (stereo partly shown)"
  quantity: "MIC"
  value.unit: "µg/mL"
  censoring.qualifier: "="
  numeric.readout: 50
- compound: "NC[C@H]1O[C@@H](O[C@@H]([C@H](NCCCC(=O)NCc2ccc(N3CCC(Oc4ccc(OC(F)(F)F)cc4)CC3)cc2)C(N)=O)[C@H]2O[C@@H](n3ccc(=O)[nH]c3=O)C(O)C2O)[C@H](O)[C@@H]1O (stereo partly shown)"
  quantity: "MIC"
  value.unit: "µg/mL"
  censoring.qualifier: "="
  numeric.readout: 3.25
- compound: "CN(CCCN)[C@H](C(N)=O)[C@H](O[C@@H]1O[C@H](CN)[C@@H](O)[C@H]1O)[C@H]1O[C@@H](n2ccc(=O)[nH]c2=O)C(O)C1O (stereo partly shown) [compound 7, FR-900493-Amide]"
  quantity: "MIC"
  value.unit: "µg/mL"
  censoring.qualifier: ">"
  numeric.readout: 25
- compound: "NCCCN[C@H](C(N)=O)[C@H](O[C@@H]1O[C@H](CN)[C@@H](O)[C@H]1O)[C@H]1O[C@@H](n2ccc(=O)[nH]c2=O)C(O)C1O (stereo partly shown)"
  quantity: "MIC"
  value.unit: "µg/mL"
  censoring.qualifier: ">"
  numeric.readout: 25
- compound: "CN[C@H](CC(C)C)C(=O)N[C@H]1C(=O)N[C@@H](CC(N)=O)C(=O)N[C@H]2C(=O)N[C@H]3C(=O)N[C@H](C(=O)N[C@H](C(=O)O)c4cc(O)cc(O)c4-c4cc3ccc4O)[C@H](O)c3ccc(c(Cl)c3)Oc3cc2cc(c3O[C@@H]2O[C@H](CO)[C@@H](O)[C@H](O)[C@H]2O[C@H]2C[C@](C)(N)[C@H](O)[C@H](C)O2)Oc2ccc(cc2Cl)[C@H]1O [vancomycin, reference compound]"
  quantity: "MIC"
  value.unit: "µg/mL"
  censoring.qualifier: "="
  numeric.readout: 2.5
- compound: "CN(CCCN)[C@H](C(=O)O)[C@@H](O[C@@H]1O[C@H](CN)[C@@H](O)[C@H]1O)[C@H]1O[C@@H](n2ccc(=O)[nH]c2=O)C(O)C1O (stereo partly drawn) [compound 5, FR-900493-5′R,6′S-Diastereomer]"
  quantity: "MIC"
  value.unit: "µg/mL"
  censoring.qualifier: ">"
  numeric.readout: 25
- compound: "CN(CCCN)[C@@H](C(=O)O)[C@@H](O[C@@H]1O[C@H](CN)[C@@H](O)[C@H]1O)[C@H]1O[C@@H](n2ccc(=O)[nH]c2=O)C(O)C1O (stereo partly drawn) [compound 6, FR-900493-5′R, 6′R-Diastereomer]"
  quantity: "MIC"
  value.unit: "µg/mL"
  censoring.qualifier: ">"
  numeric.readout: 25
